Assay: compound effects on hepatocellular carcinoma cell viability – HepG2, calcein-AM fluorescence, 48 h, basal, profiling panel (AID 1164); note: test concentration not given here
Condition label: higher = more signal
Property label: z-score
When you answer, write just the number.

Example entries begin here.
COC(=O)[C@H](Cc1ccc(O)cc1)N[C@@H](/C=C/C1CC1)[C@H](O)Cc1ccccc1	0.192
O=C1O[C@H](Cc2ccccc2)[C@@H]2[C@H]3C=CCCC=C3CN2[C@H]1Cc1ccc(O)cc1	0.146
CN1C(=O)[C@@H]2[C@@H](CC(COc3ccccc3)=C3[C@@H](CCc4ccccc4)OB(O)C[C@@H]32)C1=O	-1.14

Value lookup for z-score; key = COc1cc(C(O)C2C=CC3C(=O)N(c4ccccc4)C(=O)C3N2Nc2ccccc2F)cc(OC)c1OC (stereo not drawn)
-0.162

I am curious: what z-score value has been reported for COCCCNC(=O)[C@@H]1c2ccccc2C(=O)N(Cc2ccc(OC(F)(F)F)cc2)[C@H]1c1ccc(CO)cc1 ?
0.198

Fill in: z-score of CC(C)NC(=O)[C@@]1(C)c2ccccc2C(=O)N(Cc2ccccc2)[C@H]1c1ccc(CO)cc1 is ___
1.41

Any idea what z-score was measured for C=CCN1Cc2ccccc2[C@H]2OC(c3ccc(OCCCO)cc3)=N[C@@]2(CCS(=O)(=O)c2ccccc2)C1=O ?
-0.37

* * *

Experimental system: Carbonic anhydrase 2 (Homo sapiens) (UniProt P00918)
Assay: compounds binding carbonic anhydrase 2 – biochemical, small-molecule microarray, Alexa647-labelled CAII, profiling panel (AID 1122)
Condition label: CAII-A647 binding fluorescence, higher = more signal
Form field: composite z-score (one value per entry).
Output spec: single numeric token, no unit.

Known composite z-score results, listed for orientation:
COc1ccc(C(O)C2C=CC3C(=O)N(c4ccccc4)C(=O)C3N2Nc2ccc([N+](=O)[O-])cc2)c2ccccc12 (stereo not drawn)	0.575
CC1CC/C=C\[C@H]2OC34C=CCN(CCN5CCOCC5)C(=O)[C@H]3N(CCCO)C(=O)[C@@H]4C2C(=O)O1 (stereo partly drawn)	0.91

# input for lookup
Any idea what its composite z-score is? The compound is COC(=O)C1=CC(CCCO)=CC(c2cccs2)N(Cc2cc3c(cc2Br)OCO3)C=C1C(=O)OC (stereo not drawn)
0.769

* * *

Assay: probe aLefty1 binding on compound microarray – biochemical, small-molecule microarray, 635/667 nm fluorescence, primary screen (AID 1153);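 note: score merges spot fluorescence with signal-to-noise ratio from the scanned slide images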
Condition label: higher = more signal
Entries and their measured composite z-score follow.
In your answer, state the number alone without any accompanying words.

Sample CO[C@H]1O[C@H](CO)[C@@H](OC(=O)Nc2ccc3c(c2)OCO3)[C@H](OC(=O)Nc2ccccc2-c2ccccc2)[C@H]1OC(=O)Nc1ccccc1-c1ccccc1 — what was its composite z-score?
-0.0536

Entry CC=CC(O)C1C=CC2C(=O)NC(=O)C2N1Nc1ccc(Cl)cc1Cl (stereo unspecified) : reported composite z-score = ?
0.169

# input compound: C=CC1c2cc(O)c(OC)cc2CCN1C (stereo unspecified) ; wanted: its composite z-score
-0.101

Given [N-]=[N+]=Nc1ccccc1C[C@]1(C(=O)N2CCOCC2)N=C(c2ccc(OCCCO)cc2)O[C@H]1c1ccccc1N=[N+]=[N-] , state its recorded composite z-score.
0.15

Entry CN(C)CCCC[C@@H]1NC(=O)[C@@H]2C[C@H](C(=O)NCCCCCCNC(=O)CS)[C@H](c3ccc(O)cc3)N2C1=O has what composite z-score?
0.0013

For the compound shown here, [N-]=[N+]=NCc1ccccc1[C@@H]1OC(c2ccc(OCCCO)cc2)=N[C@]1(Cc1ccccc1N=[N+]=[N-])C(=O)NCC(O)CO (stereo partly specified) , give the reported composite z-score.
1.31

composite z-score lookup needed for [N-]=[N+]=NCc1ccccc1[C@@H]1OC(c2ccc(OCCCO)cc2)=N[C@]1(Cc1ccccc1N=[N+]=[N-])C(=O)O , thanks.
0.865

Entry under review: O=C1C[C@@](C(=O)NCc2ccccc2)(c2ccc([N+](=O)[O-])cc2)[C@@H](c2ccc(CO)cc2)N1C1CCCCC1 . Reported composite z-score?
0.857

Any idea what composite z-score was measured for CCN(CC)c1ccc(N2CC=CC34O[C@@H]5C=CCCOC(=O)C5[C@H]3C(=O)N(C(C)CO)[C@@H]4C2=O)cc1 (stereo partly specified) ?
0.138

So what does the record say about composite z-score for COC(=O)C(CC#Cc1ccc2c(c1)[C@]1(C(=O)N2)[C@H](c2ccccc2OCCO)N2[C@H](c3ccccc3)[C@H](c3ccccc3)OC(=O)[C@H]2[C@@H]1C(=O)N1CCc2cc(OC)c(OC)cc2C1)C(=O)OC ?
0.0215
